- Test system: KB
- protocol summary: In vitro reversal of multidrug resistance (MDR) in human carcinoma cell line
- Format: functional

{"columns": ["compound", "value qualifier", "Activity [µM]"],
 "data": [
  ["COc1cccc(C(=O)CN2CCCCC2C(=O)N[C@@H](Cc2ccccc2)C(=O)N[C@@H](CC(C)C)C(=O)OC(C)(C)C)c1 (stereo partly specified)", "=", 7],
  ["COC(=O)[C@H](Cc1ccccc1)NC(=O)[C@@H](NC(=O)[C@H](Cc1ccccc1)NC(=O)C1CCCCN1CC(=O)c1cccc(OC)c1)C(C)C (stereo partly specified)", ">", 50],
  ["COc1cccc(C(=O)CN2CCCCC2C(=O)N[C@@H](Cc2ccccc2)C(=O)N[C@H](/C=C/I)C(C)C)c1 (stereo partly specified)", "=", 30],
  ["C=CCOC/C=C/[C@@H](NC(=O)[C@H](Cc1ccccc1)NC(=O)C1CCCCN1CC(=O)c1cccc(OC)c1)C(C)C (stereo partly specified)", "=", 6],
  ["CCC(C)C[C@H](NC(=O)C1CCCCN1CC(=O)c1cccc(OC)c1)C(=O)OC(C)(C)C (stereo partly specified)", ">", 50],
  ["COC(=O)[C@H](Cc1ccccc1)NC(=O)[C@@H](NC(=O)[C@H](Cc1ccccc1)NC(=O)C1CCCCN1CC(=O)c1ccc2ccccc2c1)C(C)C (stereo partly specified)", ">", 50]
]}

###

- Tested on: KB
- protocol summary: In vitro reversal of multidrug resistance (MDR) in human carcinoma cell line
- Format: functional

{"columns": ["molecule", "value qualifier", "Activity [µM]"],
 "data": [
  ["C=CCC(CC(C)C[C@H](C)C[C@H](OC)C1OC(O)(C(=O)C(=O)N2CCCCC2)[C@H](C)C[C@@H]1OC)C(=O)C[C@H](O)[C@@H](C)[C@H](OC(C)=O)C(C)CC1CC[C@@H](O)C(OC)C1 (some centres undefined)", "=", 5],
  ["COc1cccc(C(=O)CN2CCCCC2C(=O)N[C@@H](Cc2ccccc2)C(=O)OC(C)(C)C)c1 (some centres undefined)", ">", 50],
  ["C[C@H](/C=C/c1ccc(C(=O)C(=O)N2CCCC2C(=O)N[C@@H](CC2CCCCC2)C(=O)OC(C)(C)C)s1)CO (some centres undefined)", "=", 13],
  ["COC(=O)C(=O)N1CCCC1C(=O)N[C@@H](Cc1ccccc1)C(=O)OC(C)(C)C (some centres undefined)", ">", 50]
]}

###

Below, each of the molecules is paired with its reported Activity value.
- assay system: Peptidyl-prolyl cis-trans isomerase FKBP1A (Homo sapiens) (UniProt P62942)
- Sequence (P62942 whole entry): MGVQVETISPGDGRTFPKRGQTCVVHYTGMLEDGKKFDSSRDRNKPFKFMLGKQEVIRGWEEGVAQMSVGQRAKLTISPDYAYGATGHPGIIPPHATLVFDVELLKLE
- protocol summary: In vitro inhibition of non-cytotoxic immunophilin FK506 binding protein activity
measured metric: Activity (µM)

{"columns": ["molecule", "value qualifier", "quantitative result"],
 "data": [
  ["COc1cccc(C(=O)CN2CCCCC2C(=O)N[C@@H](Cc2ccccc2)C(=O)N[C@H](C(=O)OC(C)(C)C)C(C)C)c1 (some centres not stated)", "=", 3],
  ["COC(=O)[C@H](Cc1ccccc1)NC(=O)[C@@H](NC(=O)[C@H](Cc1ccccc1)NC(=O)C1CCCCN1CC(=O)c1cccc(OC)c1)C(C)C (some centres not stated)", "=", 1],
  ["COc1cccc(C(=O)CN2CCCCC2C(=O)N[C@@H](Cc2ccccc2)C(=O)N[C@H](/C=C/COC(=O)C(F)(F)F)C(C)C)c1 (some centres not stated)", "=", 1],
  ["C[C@H](/C=C/c1ccc(C(=O)C(=O)N2CCCC2C(=O)N[C@@H](Cc2ccccc2)C(=O)OC(C)(C)C)s1)CO (some centres not stated)", "=", 100],
  ["C[C@H](/C=C/c1ccc(C(=O)C(=O)N2CCCC2C(=O)OC(C)(C)C)s1)CO (some centres not stated)", ">", 100],
  ["C[C@H](/C=C/c1ccc(C(=O)C(=O)N2CCCC2C(=O)N[C@@H](CC2CCCCC2)C(=O)OC(C)(C)C)s1)CO (some centres not stated)", ">", 100],
  ["COc1cccc(C(=O)CN2CCCCC2C(=O)N[C@@H](Cc2ccccc2)C(=O)N[C@@H](CC(C)C)C(=O)OC(C)(C)C)c1 (some centres not stated)", "=", 6],
  ["COc1cccc(C(=O)CN2CCCCC2C(=O)N[C@@H](Cc2ccccc2)C(=O)N[C@H](/C=C/I)C(C)C)c1 (some centres not stated)", "=", 2],
  ["COC(=O)C(=O)N1CCCC1C(=O)N[C@@H](Cc1ccccc1)C(=O)OC(C)(C)C (some centres not stated)", ">", 50],
  ["C=CCC(CC(C)C[C@H](C)C[C@H](OC)C1OC(O)(C(=O)C(=O)N2CCCCC2)[C@H](C)C[C@@H]1OC)C(=O)C[C@H](O)[C@@H](C)[C@H](OC(C)=O)C(C)CC1CC[C@@H](O)C(OC)C1 (some centres not stated)", "=", 0.001],
  ["CC(C)[C@H](NC(=O)[C@H](Cc1ccccc1)NC(=O)C1CCCCN1CC(=O)c1ccc2ccccc2c1)C(=O)OC(C)(C)C (some centres not stated)", "=", 1],
  ["C#C[C@@H](NC(=O)[C@H](Cc1ccccc1)NC(=O)C1CCCCN1CC(=O)c1cccc(OC)c1)C(C)C (some centres not stated)", "=", 5],
  ["COc1cccc(C(=O)CN2CCCCC2C(=O)N[C@@H](Cc2ccccc2)C(=O)OC(C)(C)C)c1 (some centres not stated)", "=", 3],
  ["COC(=O)[C@H](Cc1ccccc1)NC(=O)[C@@H](NC(=O)[C@H](Cc1ccccc1)NC(=O)C1CCCCN1CC(=O)c1ccc2ccccc2c1)C(C)C (some centres not stated)", "=", 0.3],
  ["COc1cccc(C(=O)CN2CCCCC2C(=O)N[C@@H](Cc2ccccc2)C(=O)N[C@H](/C=C/COC(C)=O)C(C)C)c1 (some centres not stated)", "=", 2],
  ["CCC(C)C[C@H](NC(=O)C1CCCCN1CC(=O)c1cccc(OC)c1)C(=O)OC(C)(C)C (some centres not stated)", "=", 8],
  ["C=CCOC/C=C/[C@@H](NC(=O)[C@H](Cc1ccccc1)NC(=O)C1CCCCN1CC(=O)c1cccc(OC)c1)C(C)C (some centres not stated)", "=", 3]
]}

###

- Test system: KB
- protocol summary: In vitro reversal of multidrug resistance (MDR) in human carcinoma cell line
- Assay type: functional
measured metric: Activity

{"columns": ["compound", "result"],
 "data": [
  ["C[C@H](/C=C/c1ccc(C(=O)C(=O)N2CCCC2C(=O)N[C@@H](Cc2ccccc2)C(=O)OC(C)(C)C)s1)CO (stereo partly drawn)", ">50 µM"],
  ["COc1cccc(C(=O)CN2CCCCC2C(=O)N[C@@H](Cc2ccccc2)C(=O)N[C@H](/C=C/COC(C)=O)C(C)C)c1 (stereo partly drawn)", ">50 µM"],
  ["C[C@H](/C=C/c1ccc(C(=O)C(=O)N2CCCC2C(=O)OC(C)(C)C)s1)CO (stereo partly drawn)", ">50 µM"]
]}
